target: mAChR hM4 (Homo sapiens, UniProt P08173); construct: expressed in transfected cells; host or cells: CHO-K1 (Chinese hamster ovary) cells; assay: mAChR M4 cell-based functional assay (calcium flux, potentiation of EC20 acetylcholine response); conditions: % ACh maximum at 30 μM; mAChR hM4 cell-line
Sequence (P08173 whole entry): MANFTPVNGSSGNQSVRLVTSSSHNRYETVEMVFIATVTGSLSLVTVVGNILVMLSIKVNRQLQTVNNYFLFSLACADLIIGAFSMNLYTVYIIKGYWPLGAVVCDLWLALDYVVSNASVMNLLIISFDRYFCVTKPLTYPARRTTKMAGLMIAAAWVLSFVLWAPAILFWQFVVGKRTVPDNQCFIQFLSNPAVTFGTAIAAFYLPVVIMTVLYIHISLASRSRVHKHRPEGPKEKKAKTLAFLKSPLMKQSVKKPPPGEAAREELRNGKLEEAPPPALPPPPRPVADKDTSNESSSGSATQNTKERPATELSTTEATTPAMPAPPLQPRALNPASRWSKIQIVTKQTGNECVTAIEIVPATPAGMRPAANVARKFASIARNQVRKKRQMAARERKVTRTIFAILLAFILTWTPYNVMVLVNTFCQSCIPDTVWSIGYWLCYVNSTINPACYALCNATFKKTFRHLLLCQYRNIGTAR
observed-property: Emax at 30 µM (%)

# count of solved cases: 5
- molecule: "Cc1nc2sc(C(=O)NCC(C)(C)O)c(C3CC3)c2c(C)c1Cl"
  observed-property: "Emax at 30 µM"
  units-text: "%"
  observed-measurement: 43
- molecule: "Cc1cnc2sc(C(=O)NCc3ccc(-c4cccnc4F)cc3)cc2c1C"
  observed-property: "Emax at 30 µM"
  units-text: "%"
  observed-measurement: 41
- molecule: "Cc1nc2sc(C(=O)NC3CC3)c(Br)c2c(C)c1Cl"
  observed-property: "Emax at 30 µM"
  units-text: "%"
  observed-measurement: 62
- molecule: "COc1ccc(CNC(=O)c2sc3nc(C)cc(C)c3c2I)cc1"
  observed-property: "Emax at 30 µM"
  units-text: "%"
  observed-measurement: 51
- molecule: "Cc1nc2sc(C(=O)NC3CCOC3)c(C)c2c(C)c1Cl (centres unmarked)"
  observed-property: "Emax at 30 µM"
  units-text: "%"
  observed-measurement: 79

[I] Cc1cc(C)c2c(C)c(C(=O)NC3CCOC3)sc2n1 (centres unmarked)
[II] Cc1nc2sc(C(=O)NC3CCOC3)c(Cl)c2c(C)c1Cl (centres unmarked)
Task: Kindly compare I with II and tell me which has the lower Emax at 30 µM figure. Could you answer with the label of the item you picked?
Result: II
